biological target: HIV-1 NefNL4-3 (Human immunodeficiency virus type 1 group M subtype B, UniProt P03406, A33V/T15A/T51N/V11I); experiment: Surface plasmon resonance binding to recombinant full-length Nef (NL4-3); details: response units at 30 μM relative to Nef immobilized on the SPR chip
Recorded RU30/RUNef (extent of binding), one value per entry.

Worked examples follow.
Molecule	Experimental result
Oc1c(CC2CCOCC2)c(-c2ccccc2F)nn1-c1nc2ccccc2[nH]1	1.62E- 02
Oc1c(CCC2CCOCC2)c(-c2ccc(F)cc2)nn1-c1nc2ccccc2[nH]1	1.11E- 02
COCCc1nn(-c2nc3ccccc3[nH]2)c(O)c1CCc1ccc(F)cc1	2.86E- 03
Oc1c(CCc2ccccn2)c(-c2ccc(C(F)(F)F)cn2)nn1-c1nc2ccccc2[nH]1	6.42E- 04
O=C(Cc1ccncc1)N1CCCC1c1nn(-c2nc3ccccc3[nH]2)c(O)c1CCc1ccc(F)cc1 (stereo not drawn)	1.38E- 03
CC(=O)N1CCC(c2nn(-c3nc4ccc(Cl)cc4[nH]3)c(O)c2CCc2ccc(F)cc2)CC1	1.56E- 02
COC(=O)c1ccc(CCc2c(-c3ccccc3)nn(-c3nc4cc(Cl)ccc4[nH]3)c2O)cc1	2.77E- 02
CC(=O)N1CCCC(Cc2c(C3CC3)nn(-c3nc4ccccc4[nH]3)c2O)C1 (stereo not drawn)	4.47E- 03

Could you share which RU30/RUNef (extent of binding) value was measured for `CS(=O)(=O)N1CCC(c2nn(-c3nc4cc(Cl)ccc4[nH]3)c(O)c2CCC2CCOCC2)CC1` ? 2.34E- 03
